Data credit: ChEMBL document CHEMBL3045268

- System: Mus musculus
- methodSummary: Toxicity in Mus musculus (mouse) transplanted with mouse EAC cells assessed as effect on lymphocytes level at 75 mg/kg, ip measured on day 13 post tumor implantation (reference value: 35.8 +/- 1.15%)
- Format: organism-based, Ehrlich
- Parameters: dose 75 mg/kg, route intraperitoneal
- particulars: in vivo
resultType: Activity

compound=Cc1cc(O)c(-c2csc(NC(=O)CN3CCN(C(=O)c4ccco4)CC3)n2)c(=O)o1 experimentalsystem="Mus musculus" resulttype=Activity result=62%
compound=COc1ccccc1N1CCN(CC(=O)Nc2nc(-c3c(O)cc(C)oc3=O)cs2)CC1 experimentalsystem="Mus musculus" resulttype=Activity result=70%
compound="Cc1cc(O)c(-c2csc(N3C(=O)CSC3c3cccc([N+](=O)[O-])c3)n2)c(=O)o1 (stereo not drawn)" experimentalsystem="Mus musculus" resulttype=Activity result=32%
compound="Cc1cc(O)c(-c2csc(N3C(=O)CSC3c3ccc(Cl)cc3)n2)c(=O)o1 (stereo not drawn)" experimentalsystem="Mus musculus" resulttype=Activity result=44%
compound="COc1cc(C2SCC(=O)N2c2nc(-c3c(O)cc(C)oc3=O)cs2)cc(OC)c1OC (stereo not drawn)" experimentalsystem="Mus musculus" resulttype=Activity result=39.4%
compound=Cc1cc(O)c(-c2csc(NC(=O)CN3CCN(c4ccc(F)cc4)CC3)n2)c(=O)o1 experimentalsystem="Mus musculus" resulttype=Activity result=31%
compound=Cc1cc(O)c(-c2csc(NC(=O)CN3CCN(C)CC3)n2)c(=O)o1 experimentalsystem="Mus musculus" resulttype=Activity result=35.4%
compound="Cc1cc(O)c(-c2csc(N3C(=O)CSC3c3ccc(O)cc3)n2)c(=O)o1 (stereo not drawn)" experimentalsystem="Mus musculus" resulttype=Activity result=61%

----------
- System: Mus musculus
- methodSummary: Toxicity in Mus musculus (mouse) transplanted with mouse EAC cells assessed as effect on neutrophils level at 75 mg/kg, ip measured on day 13 post tumor implantation (reference value: 60.4 +/- 1.5%)
- Format: organism-based, Ehrlich
- Design: dose 75 mg/kg, route intraperitoneal
- particulars: in vivo
resultType: Activity (%)

compound=COc1ccccc1N1CCN(CC(=O)Nc2nc(-c3c(O)cc(C)oc3=O)cs2)CC1 experimentalsystem="Mus musculus" resulttype=Activity units=% quantitativeresult=25
compound="Cc1cc(O)c(-c2csc(N3C(=O)CSC3c3ccc(Cl)cc3)n2)c(=O)o1 (stereo not drawn)" experimentalsystem="Mus musculus" resulttype=Activity units=% quantitativeresult=52.2
compound="COc1cc(C2SCC(=O)N2c2nc(-c3c(O)cc(C)oc3=O)cs2)cc(OC)c1OC (stereo not drawn)" experimentalsystem="Mus musculus" resulttype=Activity units=% quantitativeresult=58.2
compound=Cc1cc(O)c(-c2csc(NC(=O)CN3CCN(c4ccc(F)cc4)CC3)n2)c(=O)o1 experimentalsystem="Mus musculus" resulttype=Activity units=% quantitativeresult=66
compound=Cc1cc(O)c(-c2csc(NC(=O)CN3CCN(C)CC3)n2)c(=O)o1 experimentalsystem="Mus musculus" resulttype=Activity units=% quantitativeresult=63.2
compound="Cc1cc(O)c(-c2csc(N3C(=O)CSC3c3ccc(O)cc3)n2)c(=O)o1 (stereo not drawn)" experimentalsystem="Mus musculus" resulttype=Activity units=% quantitativeresult=34
compound=Cc1cc(O)c(-c2csc(NC(=O)CN3CCN(C(=O)c4ccco4)CC3)n2)c(=O)o1 experimentalsystem="Mus musculus" resulttype=Activity units=% quantitativeresult=34
compound="Cc1cc(O)c(-c2csc(N3C(=O)CSC3c3cccc([N+](=O)[O-])c3)n2)c(=O)o1 (stereo not drawn)" experimentalsystem="Mus musculus" resulttype=Activity units=% quantitativeresult=63.2
